target: hsst5 (Homo sapiens); construct: expressed in transfected cells; experiment: Somatostatin receptor radioligand binding assay, hsst5; settings: CHO-K1 membranes, [125I-Tyr11]SS-14; read-out: hsst5 Ki
Sequence (P35346 whole entry): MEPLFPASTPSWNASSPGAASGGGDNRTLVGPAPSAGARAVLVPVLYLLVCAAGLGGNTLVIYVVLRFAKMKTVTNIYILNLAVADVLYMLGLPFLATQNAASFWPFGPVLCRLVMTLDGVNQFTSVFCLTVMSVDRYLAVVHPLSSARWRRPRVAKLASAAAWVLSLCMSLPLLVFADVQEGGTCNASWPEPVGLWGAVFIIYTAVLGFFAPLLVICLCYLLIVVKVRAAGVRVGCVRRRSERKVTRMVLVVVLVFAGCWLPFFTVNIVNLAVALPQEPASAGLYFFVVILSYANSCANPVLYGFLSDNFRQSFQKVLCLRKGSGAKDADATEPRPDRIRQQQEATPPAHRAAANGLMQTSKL
Numbered stars: 1 amine (or outer) side, 2 acyl side, 3 side chain; on linkers, the order of the positions; unused ones are H or OH. Bridge positions count the residues as written; N and C are the ends. Square brackets hold non-standard residues; d marks the D form. Peptide text beside a SMILES is read from it. * marks the point of attachment. X1 = CCCN1C[C@H](CSCC(=O)*)C[C@@H]2c3cccc4[nH]cc(c34)C[C@H]21; Pipz(1-CH2CO,4-CH2CH2NH) = O=C(CN1CCN(CCN[*:1])CC1)[*:2]; Abu = CC[C@H](N)C(=O)O
Items are presented alongside their recorded Ki.

| compound | Ki (nM) |
| --- | --- |
| CC[C@@H]1NC(=O)[C@H](CCCCN)NC(=O)[C@@H](Cc2c[nH]c3ccccc23)NC(=O)[C@H](Cc2ccc(O)cc2)NC(=O)[C@@H](NC(=O)[C@@H](Cc2ccccc2)NC(=O)COCCOCCNC(=O)CSC[C@@H]2C[C@@H]3c4cccc5[nH]cc(c45)C[C@H]3N(C)C2)CSSC[C@@H](C(=O)N[C@H](C(N)=O)[C@@H](C)O)NC1=O | 17 |
| CCCN1C[C@H](CSCC(=O)NCCOCCOCC(=O)N[C@H](Cc2ccccc2)C(=O)N[C@H]2CSSC[C@@H](C(=O)N[C@H](C(N)=O)[C@@H](C)O)NC(=O)[C@H](CC)NC(=O)[C@H](CCCCN)NC(=O)[C@@H](Cc3c[nH]c4ccccc34)NC(=O)[C@H](Cc3ccc(O)cc3)NC2=O)C[C@@H]2c3cccc4[nH]cc(c34)C[C@H]21 | 24.5 |
| CCCN1C[C@H](CSCC(=O)NCCCC[C@@H](NC(=O)CSC[C@@H]2C[C@@H]3c4cccc5[nH]cc(c45)C[C@H]3N(CCC)C2)C(=O)N[C@H](Cc2ccccc2)C(=O)N[C@H]2CSSC[C@@H](C(=O)N[C@H](C(N)=O)[C@@H](C)O)NC(=O)[C@H]([C@@H](C)O)NC(=O)[C@H](CCCCN)NC(=O)[C@@H](Cc3c[nH]c4ccccc34)NC(=O)[C@H](Cc3ccc(O)c(I)c3)NC2=O)C[C@@H]2c3cccc4[nH]cc(c34)C[C@H]21 [Example 13] | 10.7 |
| CCCN1C[C@H](CSCC(=O)NCCN2CCN(CC(=O)NCCN3CCN(CC(=O)N[C@H](Cc4ccccc4)C(=O)N[C@H]4CSSC[C@@H](C(=O)N[C@H](C(N)=O)[C@@H](C)O)NC(=O)[C@H](CC)NC(=O)[C@H](CCCCN)NC(=O)[C@@H](Cc5c[nH]c6ccccc56)NC(=O)[C@H](Cc5ccc(O)cc5)NC4=O)CC3)CC2)C[C@@H]2c3cccc4[nH]cc(c34)C[C@H]21 [Example 36] (X1-[Pipz(1-CH2CO,4-CH2CH2NH)][Pipz(1-CH2CO,4-CH2CH2NH)][dF]CY[dW]K[Abu]CT-NH2; disulfide 4-9) | 53.5 |
| CCCN1C[C@H](CSCC(=O)NCCCC[C@@H](NC(=O)CSC[C@@H]2C[C@@H]3c4cccc5[nH]cc(c45)C[C@H]3N(CCC)C2)C(=O)N[C@H](Cc2ccccc2)C(=O)N[C@H]2CSSC[C@@H](C(=O)N[C@H](C(N)=O)[C@@H](C)O)NC(=O)[C@H]([C@@H](C)O)NC(=O)[C@H](CCCCN)NC(=O)[C@@H](Cc3c[nH]c4ccccc34)NC(=O)[C@H](Cc3ccc(O)c(I)c3)NC2=O)C[C@@H]2c3cccc4[nH]cc(c34)C[C@H]21 [Example 15] | 6.29 |

Just for reference, patent US20110065632A1 is where these values come from.
